experiment: Cytotoxicity against mouse 3T3 cells assessed as reduction in cell viability at 75 ug/ml after 4 hrs by MTT assay (reference value: 90.42 +/- 0.03%); format: cell-based; details: 3t3, 4 h, at 75 µg/mL
test.readout: Activity (%)
One number for each entry, in %.

>>> observed_measurement("Cl.Cl.O=C1/C(=C/c2ccc(OCCCCN3CCCCCC3)cc2)CC/C1=C\\c1ccc(OCCCCN2CCCCCC2)cc1")
7.03
>>> observed_measurement("COc1cc(/C=C2\\CC/C(=C\\c3ccc(OCCCCN4CCCCCC4)c(OC)c3)C2=O)ccc1OCCCCN1CCCCCC1.Cl.Cl")
7.03
>>> observed_measurement("COc1cc(/C=C2\\CC/C(=C\\c3ccc(OCCCN4CCCCCC4)c(OC)c3)C2=O)ccc1OCCCN1CCCCCC1.Cl.Cl")
7.03

# input Endpoint output: Activity of CCOc1cc(/C=C2\CC/C(=C\c3ccc(OCCCN4CCCC(C)C4)c(OCC)c3)C2=O)ccc1OCCCN1CCCC(C)C1.Cl.Cl (centres undefined) . Value?
# output 7.03

###

system: Escherichia coli; assay: Antibacterial activity against Escherichia coli ATCC 25922 after 16 to 18 hrs by CLSI-based microbroth dilution method; type: functional; conditions: time 16-18 hrs
Positions of bridges follow the written chain, without caps; N, C: chain ends. Non-standard residues stand in square brackets, D forms with d. Residues, ends and D or L forms follow the SMILES beside them. *: point of attachment. X1 = CC[C@H](C)CCCCC(=O)*; Dab = NCC[C@H](N)C(=O)O
test.readout: MIC (µg/mL)
One number for each entry, in µg/mL.

Use these answered entries as a reference point.
>>> observed_measurement("CC[C@H](C)CCCCC(=O)N[C@@H](CCN)C(=O)N[C@H](C(=O)N[C@@H](CCN)C(=O)N[C@H]1CCNC(=O)[C@H]([C@@H](C)O)NC(=O)[C@H](CCN)NC(=O)[C@H](CCN)NC(=O)[C@H](CC(C)C)NC(=O)[C@@H](Cc2ccccc2)NC(=O)[C@H](CCN)NC1=O)[C@@H](C)O (X1-[Dab]T[Dab][Dab][Dab][dF]L[Dab][Dab]T; lactam 4-C)")
0.5
>>> observed_measurement("CN[C@H](CC(C)C)C(=O)N[C@H]1C(=O)N[C@@H](CC(N)=O)C(=O)N[C@H]2C(=O)N[C@H]3C(=O)N[C@H](C(=O)N[C@H](C(=O)O)c4cc(O)cc(O)c4-c4cc3ccc4O)[C@H](O)c3ccc(c(Cl)c3)Oc3cc2cc(c3O[C@@H]2O[C@H](CO)[C@@H](O)[C@H](O)[C@H]2O[C@H]2C[C@](C)(N)[C@H](O)[C@H](C)O2)Oc2ccc(cc2Cl)[C@H]1O")
64

# input # lookup: MIC of Cl.Cl.O=C1/C(=C/c2ccc(OCCCCN3CCCCCC3)cc2)CC/C1=C\c1ccc(OCCCCN2CCCCCC2)cc1
# output 16

###

test system: Cell membrane; assay: Induction of cytoplasmic membrane depolarization in methicillin resistant Staphylococcus aureus ATCC 33591 at 5 times MIC by [DiSC3(5)] probe based fluorescence assay relative to control; type: subcellular; settings: time 2.0 hrs
Task for the reader: assign each of the following compounds its reported Activity.

>>> observed_measurement("COc1cc(/C=C2\\CC/C(=C\\c3ccc(OCCCN4CCCCCC4)c(OC)c3)C2=O)ccc1OCCCN1CCCCCC1.Cl.Cl")
"95.7%"

// for each compound in input: emit Activity
1. CCOc1cc(/C=C2\CC/C(=C\c3ccc(OCCCN4CCCC(C)C4)c(OCC)c3)C2=O)ccc1OCCCN1CCCC(C)C1.Cl.Cl (centres undefined)
2. COc1cc(/C=C2\CC/C(=C\c3ccc(OCCCCN4CCCCCC4)c(OC)c3)C2=O)ccc1OCCCCN1CCCCCC1.Cl.Cl
3. Cl.Cl.O=C1/C(=C/c2ccc(OCCCCN3CCCCCC3)cc2)CC/C1=C\c1ccc(OCCCCN2CCCCCC2)cc1

# output
["87%", "90.7%", "95.7%"]

###

Give Activity for every item shown.
tested on: Cell membrane; assay: Induction of cytoplasmic membrane permeabilization in Staphylococcus aureus ATCC 33591 at 5 times MIC measured after 2 min using calcein-AM as substrate by dye based fluorescence assay relative to control; type: subcellular
Numbers only, in %.

These recorded examples may help you get a feel for the data.
>>> observed_measurement("CCOc1cc(/C=C2\\CC/C(=C\\c3ccc(OCCCN4CCCC(C)C4)c(OCC)c3)C2=O)ccc1OCCCN1CCCC(C)C1.Cl.Cl (centres undefined)")
60.2
>>> observed_measurement("Cl.Cl.O=C1/C(=C/c2ccc(OCCCCN3CCCCCC3)cc2)CC/C1=C\\c1ccc(OCCCCN2CCCCCC2)cc1")
76.6
>>> observed_measurement("COc1cc(/C=C2\\CC/C(=C\\c3ccc(OCCCN4CCCCCC4)c(OC)c3)C2=O)ccc1OCCCN1CCCCCC1.Cl.Cl")
80.6

# input Could you share what Activity was measured for COc1cc(/C=C2\CC/C(=C\c3ccc(OCCCCN4CCCCCC4)c(OC)c3)C2=O)ccc1OCCCCN1CCCCCC1.Cl.Cl , tested on Cell membrane?
# output 69.7

###

tested on: Escherichia coli; test: Antibacterial activity against Escherichia coli ATCC 25922 after 16 to 18 hrs by CLSI-based microbroth dilution method; assay type: functional; details: time 16-18 hrs
Hi there, I'd appreciate the recorded MIC for every entry that follows.
Answers are plain numbers, in µg/mL.

>>> observed_measurement("COc1cc(/C=C2\\CC/C(=C\\c3ccc(OCCCN4CCCCCC4)c(OC)c3)C2=O)ccc1OCCCN1CCCCCC1.Cl.Cl")
16
>>> observed_measurement("COc1cc(/C=C2\\CC/C(=C\\c3ccc(OCCCCN4CCCCCC4)c(OC)c3)C2=O)ccc1OCCCCN1CCCCCC1.Cl.Cl")
16

Next, consider the following compound.
# input Which MIC is listed for CCOc1cc(/C=C2\CC/C(=C\c3ccc(OCCCN4CCCC(C)C4)c(OCC)c3)C2=O)ccc1OCCCN1CCCC(C)C1.Cl.Cl (stereo not drawn) ?
# output 8

###

tested on: Escherichia coli; test: Antibacterial activity against Escherichia coli ATCC 11775 after 16 to 18 hrs by CLSI-based microbroth dilution method; format: functional; conditions: time 16-18 hrs
Positions of bridges follow the written chain, without caps; N, C: chain ends. Non-standard residues stand in square brackets, D forms with d. Residues, ends and D or L forms follow the SMILES beside them. *: point of attachment. X1 = CC[C@H](C)CCCCC(=O)*; Dab = NCC[C@H](N)C(=O)O
test.readout: MIC (µg/mL)
Numbers only, in µg/mL.

Solved cases below.
>>> observed_measurement("Cl.Cl.O=C1/C(=C/c2ccc(OCCCCN3CCCCCC3)cc2)CC/C1=C\\c1ccc(OCCCCN2CCCCCC2)cc1")
16
>>> observed_measurement("CN[C@H](CC(C)C)C(=O)N[C@H]1C(=O)N[C@@H](CC(N)=O)C(=O)N[C@H]2C(=O)N[C@H]3C(=O)N[C@H](C(=O)N[C@H](C(=O)O)c4cc(O)cc(O)c4-c4cc3ccc4O)[C@H](O)c3ccc(c(Cl)c3)Oc3cc2cc(c3O[C@@H]2O[C@H](CO)[C@@H](O)[C@H](O)[C@H]2O[C@H]2C[C@](C)(N)[C@H](O)[C@H](C)O2)Oc2ccc(cc2Cl)[C@H]1O")
64
>>> observed_measurement("COc1cc(/C=C2\\CC/C(=C\\c3ccc(OCCCCN4CCCCCC4)c(OC)c3)C2=O)ccc1OCCCCN1CCCCCC1.Cl.Cl")
16
>>> observed_measurement("COc1cc(/C=C2\\CC/C(=C\\c3ccc(OCCCN4CCCCCC4)c(OC)c3)C2=O)ccc1OCCCN1CCCCCC1.Cl.Cl")
16
>>> observed_measurement("CC[C@H](C)CCCCC(=O)N[C@@H](CCN)C(=O)N[C@H](C(=O)N[C@@H](CCN)C(=O)N[C@H]1CCNC(=O)[C@H]([C@@H](C)O)NC(=O)[C@H](CCN)NC(=O)[C@H](CCN)NC(=O)[C@H](CC(C)C)NC(=O)[C@@H](Cc2ccccc2)NC(=O)[C@H](CCN)NC1=O)[C@@H](C)O (X1-[Dab]T[Dab][Dab][Dab][dF]L[Dab][Dab]T; lactam 4-C)")
0.5

Here's the next entry for you.
# input What value of MIC has been reported for the following compound? CCOc1cc(/C=C2\CC/C(=C\c3ccc(OCCCN4CCCC(C)C4)c(OCC)c3)C2=O)ccc1OCCCN1CCCC(C)C1.Cl.Cl (stereo unspecified)
# output 8

###

test system: Staphylococcus aureus; assay: Antibacterial activity against methicillin resistant Staphylococcus aureus S-30 after 16 to 18 hrs by CLSI-based microbroth dilution method; type: functional; conditions: time 16-18 hrs
test.readout: MIC (µg/mL)
Answers are plain numbers, in µg/mL.

Example cases with answers are listed next.
>>> observed_measurement("Cc1onc(-c2ccccc2)c1C(=O)N[C@@H]1C(=O)N2[C@@H]1SC(C)(C)[C@@H]2C(=O)O")
128
>>> observed_measurement("CCOc1cc(/C=C2\\CC/C(=C\\c3ccc(OCCCN4CCCC(C)C4)c(OCC)c3)C2=O)ccc1OCCCN1CCCC(C)C1.Cl.Cl (stereo not given)")
8
>>> observed_measurement("COc1cc(/C=C2\\CC/C(=C\\c3ccc(OCCCCN4CCCCCC4)c(OC)c3)C2=O)ccc1OCCCCN1CCCCCC1.Cl.Cl")
8

Could I get MIC for every one of these entries?
1. COc1cc(/C=C2\CC/C(=C\c3ccc(OCCCN4CCCCCC4)c(OC)c3)C2=O)ccc1OCCCN1CCCCCC1.Cl.Cl
2. Cl.Cl.O=C1/C(=C/c2ccc(OCCCCN3CCCCCC3)cc2)CC/C1=C\c1ccc(OCCCCN2CCCCCC2)cc1

# output
1: 8; 2: 4
